Would you kindly list inhibition for each of these compounds?
Assayed system: Aminopeptidase N (Plasmodium falciparum (isolate 3D7))
Protocol text: malaria alanyl aminopeptidase activity blockers – biochemical, fluorogenic H-Leu-NHMec substrate, 1536-well (AID 1445);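 further: plate controls were DMSO full reaction for no effect and no enzyme background for full effect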
Assay context: recombinant M1AAP, H-Leu-NHMec fluorogenic kinetic assay; at 30 µM, active compounds read high unless noted
About 910 (0.41%) of roughly 220,000 compounds were called active. The list comes from a sample in which actives are over-represented; it also holds close analogues and randomly drawn compounds. Entries with a potency or affinity are not part of this list.
Numbers only, in %.

compound=Cc1ccc(S(=O)(=O)Nc2cc(-c3ccc(Cl)cc3)nn2C)cc1 observed_measurement=4.66
compound=N#Cc1c(NC(=O)CCN2C(=O)c3ccccc3C2=O)oc(-c2ccccc2)c1-c1ccccc1 observed_measurement=5.82
compound=C/C(=N\NC(=O)c1cc2ccccc2cc1O)c1cc2ccccc2o1 observed_measurement=3.43
compound=C/C(=N\NC(=O)CCc1ccccc1)C1C(=O)c2ccccc2C1=O observed_measurement=0.57
compound="CCN(CC)S(=O)(=O)c1ccc(NC(=O)CC(NC(C)=O)c2ccccc2)cc1 (stereo unspecified)" observed_measurement=-1.24

Could you now consider this next compound?
Enter reported inhibition observed with Aminopeptidase N (Plasmodium falciparum (isolate 3D7)) for "COCCCNC(=O)c1cccc(OC)c1OC" 3.12
